assay system: CGRP antigen
measurement protocol: cell-based or functional assay
Listing of recorded Relative binding activity (%) vs Ref(Teva) by entry.
Report the value in % with no unit label.

Entry C85 (antibody, V domains shown, 1F5-HC + 3E5-LC; chimeric, human constant regions) VH: EVQLQQSGPELVKPGASVKISCKTSGYTFIDFNMHWVKQSHGKSLEWIGYIYPYNGDVVYNQNFTNKATLTVDSSSSTAYMELRRVTSEDSAIYYCAREGLGGYWGQGTTLTVSS VL: DIVLTQSPASLAVSLGQRATISCKASQNIDYDGYTYLNWYQQKPGQPPKVLIYSIFNLESGIPARFSGSGSGTDFTLNIHPVEEEDAATYYCQQSNEVPYTFGGGTKLEIK ; Relative binding activity (%) vs Ref(Teva) = 111

// recorded Relative binding activity (%) vs Ref(Teva) for C92 (antibody, V domains shown, 1F5-HC + 3H10-LC2; chimeric, human constant regions) VH: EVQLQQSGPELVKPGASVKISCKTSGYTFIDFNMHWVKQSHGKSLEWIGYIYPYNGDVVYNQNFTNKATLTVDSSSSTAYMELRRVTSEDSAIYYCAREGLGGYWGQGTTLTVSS VL: DIVLTQSPDSLAVSLGQRATISCKASQNIDYGGYSYMNWYQQKPGQPPKVLIYSVFNLESGIPARFSGSGSGTDFTLTIHPVEEEDAATYYCQQSNEAPYTFGGGTKLEIR : 108

Please fill in: Relative binding activity (%) vs Ref(Teva) reported for C347 (antibody, V domains shown, 3H10-HC + 1A2-LC2; chimeric, human constant regions) VH: EVQLQQSGPELVQPGASVKISCKASGYTFTDYNMHWVKQSHGESLEWIGYIYPYNGHTVYNQKFRNKATMTVDSSSSTAYMDLRSLTSEDSAVYYCAKEGLGGYWGQGTTLTVSS VL: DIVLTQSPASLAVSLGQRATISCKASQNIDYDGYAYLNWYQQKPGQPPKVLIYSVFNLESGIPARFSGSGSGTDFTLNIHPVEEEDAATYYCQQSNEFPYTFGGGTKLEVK = 87.6
